# EXPERIMENTAL_SYSTEM: c-fms (Homo sapiens (Human), UniProt P07333)
# Sequence (P07333 20-972): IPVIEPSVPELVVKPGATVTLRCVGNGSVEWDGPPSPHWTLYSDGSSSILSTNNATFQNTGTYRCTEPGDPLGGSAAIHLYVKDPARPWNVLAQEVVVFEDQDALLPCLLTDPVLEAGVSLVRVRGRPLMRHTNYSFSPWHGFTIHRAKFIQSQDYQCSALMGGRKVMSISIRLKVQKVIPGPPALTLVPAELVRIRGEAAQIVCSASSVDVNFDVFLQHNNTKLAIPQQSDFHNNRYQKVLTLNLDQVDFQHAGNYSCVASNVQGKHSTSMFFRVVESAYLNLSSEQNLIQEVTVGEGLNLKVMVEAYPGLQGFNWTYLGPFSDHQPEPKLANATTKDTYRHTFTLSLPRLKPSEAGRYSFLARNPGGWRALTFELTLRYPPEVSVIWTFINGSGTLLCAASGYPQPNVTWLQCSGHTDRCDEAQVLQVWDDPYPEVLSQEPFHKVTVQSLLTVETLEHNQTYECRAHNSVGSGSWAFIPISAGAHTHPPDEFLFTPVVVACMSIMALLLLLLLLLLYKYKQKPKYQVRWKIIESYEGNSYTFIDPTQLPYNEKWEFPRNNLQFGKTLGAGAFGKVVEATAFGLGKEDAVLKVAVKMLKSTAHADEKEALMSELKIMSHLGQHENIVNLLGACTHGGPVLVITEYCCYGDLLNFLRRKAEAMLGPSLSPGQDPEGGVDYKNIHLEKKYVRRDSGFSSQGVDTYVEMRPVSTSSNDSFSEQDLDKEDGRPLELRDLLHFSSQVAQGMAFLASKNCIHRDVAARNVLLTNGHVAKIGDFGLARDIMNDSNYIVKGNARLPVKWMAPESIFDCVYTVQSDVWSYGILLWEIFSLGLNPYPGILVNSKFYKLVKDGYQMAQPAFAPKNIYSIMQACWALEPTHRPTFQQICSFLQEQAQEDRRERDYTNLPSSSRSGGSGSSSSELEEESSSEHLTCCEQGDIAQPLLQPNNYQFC
EXPERIMENTAL_ENDPOINT: pIC50
Reminder that pIC50 means the negative base-10 logarithm of the concentration expressed in mol/L.

Looking up CC1(c2ccc(NC(=O)c3ncc(C#N)[nH]3)c(C3=CCCCC3)c2)OCCO1 , I found its pIC50 recorded as 8.47

====

# System: mouse bone-marrow derived macrophages (BMDM)
# PROTOCOL_DETAILS: CSF-1-driven mouse bone-marrow derived macrophages proliferation assay (BrDU incorporation)
# Format: cell-based
# MEASUREMENT_CONDITIONS: mCSF driven proliferation, read-out: mCSF driven proliferation BMDM (Mouse) IC-50
EXPERIMENTAL_ENDPOINT: IC50 (nM)
Lab book: enter the figure in nM, no units written.

{"SMILES_ENTRY": "CC1(c2ccc(NC(=O)c3nc(C#N)c[nH]3)c(C3=CCCCC3)c2)OCCCO1", "IC50 / nM": 44}

Next item in the queue.
# IC50 of CC1(c2ccc(NC(=O)c3ncc(C#N)[nH]3)c(C3=CCCCC3)c2)OCCO1 = 48
